I'd appreciate it if you could supply neutralization IC50 values for the items below.
molecular target: HIV-1 Env of CAP210.E8 (HIV-1); test: cell-based or functional assay
Numeric answer only, unit µg/mL assumed.

Problem: # query: neutralization IC50 of entry CAP256-VRC26.08 (antibody, V domains shown) VH: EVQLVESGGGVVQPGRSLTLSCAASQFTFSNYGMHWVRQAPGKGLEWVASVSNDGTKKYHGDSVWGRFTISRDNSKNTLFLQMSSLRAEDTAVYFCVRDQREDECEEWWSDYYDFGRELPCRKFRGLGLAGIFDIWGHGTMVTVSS VL: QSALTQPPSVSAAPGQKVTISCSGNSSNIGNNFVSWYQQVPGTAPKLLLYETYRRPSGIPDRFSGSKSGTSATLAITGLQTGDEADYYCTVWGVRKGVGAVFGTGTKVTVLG
Result: 0.006

Problem: # query: neutralization IC50 of entry CAP256-VRC26.10 (antibody, V domains shown) VH: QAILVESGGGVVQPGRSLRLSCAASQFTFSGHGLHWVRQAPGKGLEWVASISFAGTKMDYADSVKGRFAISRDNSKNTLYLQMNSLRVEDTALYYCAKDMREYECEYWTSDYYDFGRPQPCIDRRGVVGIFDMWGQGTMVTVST VL: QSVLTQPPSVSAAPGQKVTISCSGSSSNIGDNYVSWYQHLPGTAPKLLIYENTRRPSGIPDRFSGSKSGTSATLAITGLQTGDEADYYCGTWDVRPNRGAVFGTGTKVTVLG
Result: 0.1

These entries and their values trace back to patent US20200199204A1.
